test system: Escherichia coli TOP10; test: shrunken log2 fold change of peptide-encoding DNA abundance (4.5 h post-induction vs induction); higher = less antimicrobial activity (less host growth inhibition); conditions: time post-induction: 4.5 h; library: site-saturation at positions 5, 18, 19, 20
Each record here notes measured shrunken log2 fold change.

Reference set (8 entries):
chain_sequence=RRIRLRPPRLPRPRPRPEAEPRP assay_metric="shrunken log2 fold change" test_value=0.96
chain_sequence=RRIRRRPPRLPRPRPRPGCHPRP assay_metric="shrunken log2 fold change" test_value=0.119
chain_sequence=RRIRGRPPRLPRPRPRPHCIPRP assay_metric="shrunken log2 fold change" test_value=-0.0261
chain_sequence=RRIRRRPPRLPRPRPRPRGAPRP assay_metric="shrunken log2 fold change" test_value=0.8
chain_sequence=RRIRCRPPRLPRPRPRPGVNPRP assay_metric="shrunken log2 fold change" test_value=-0.584
chain_sequence=RRIRSRPPRLPRPRPRPRPNPRP assay_metric="shrunken log2 fold change" test_value=0.345
chain_sequence=RRIRERPPRLPRPRPRPKTMPRP assay_metric="shrunken log2 fold change" test_value=-0.293
chain_sequence=RRIRYRPPRLPRPRPRPDEWPRP assay_metric="shrunken log2 fold change" test_value=0.0549

Value of measured shrunken log2 fold change for the entry RRIRLRPPRLPRPRPRPIDLPRP : -0.0804

shrunken log2 fold change reported for this sequence RRIRVRPPRLPRPRPRPDHVPRP : -0.0193

Measured shrunken log2 fold change of RRIRERPPRLPRPRPRPVNTPRP : -0.34

response.value for RRIRVRPPRLPRPRPRPAKCPRP (field: shrunken log2 fold change) = 0.0602

The value of shrunken log2 fold change measured for the sequence RRIRTRPPRLPRPRPRPVCQPRP turned out to be 2.97

// RRIRPRPPRLPRPRPRPGVQPRP : shrunken log2 fold change value = 0.336

shrunken log2 fold change in this record for RRIRCRPPRLPRPRPRPWGTPRP : -0.0869

====

tested on: Escherichia coli TOP10; experiment: shrunken log2 fold change of peptide-encoding DNA abundance (4.5 h post-induction vs induction); higher = less antimicrobial activity (less host growth inhibition); details: time post-induction: 4.5 h; library: site-saturation at positions 5, 18, 19, 20
Attribute: shrunken log2 fold change
Please give the numeric answer without any surrounding text.

Some sequences with recorded shrunken log2 fold change:
chain_sequence=RRIRLRPPRLPRPRPRPWKVPRP test_value=0.0854
chain_sequence=RRIRARPPRLPRPRPRPEGYPRP test_value=0.582
chain_sequence=RRIRVRPPRLPRPRPRPCPCPRP test_value=-0.151
chain_sequence=RRIRARPPRLPRPRPRPYWEPRP test_value=-0.312
chain_sequence=RRIRRRPPRLPRPRPRPVMSPRP test_value=0.042
chain_sequence=RRIRWRPPRLPRPRPRPNQQPRP test_value=-0.0465

Shift focus to the following entry.
// field: shrunken log2 fold change; key: RRIRRRPPRLPRPRPRPKGRPRP ; value = 0.135

====

test system: Escherichia coli TOP10; assay: shrunken log2 fold change of peptide-encoding DNA abundance (4.5 h post-induction vs induction); higher = less antimicrobial activity (less host growth inhibition); conditions: time post-induction: 4.5 h; library: site-saturation at positions 5, 18, 19, 20;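 further: peptides expressed intracellularly from a pBAD plasmid library in pooled LB shake-flask culture, induced with 0.3% L-arabinose, DNA abundance read by NGS, three biological replicates, DESeq2 with apeglm shrinkage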
// label = Fulfilled if shrunken log2 fold change is not less than -0.04, otherwise Not fulfilled

Some entries whose results are on file:
chain_sequence=RRIRTRPPRLPRPRPRPRDDPRP qualitative_label=Fulfilled
chain_sequence=RRIRIRPPRLPRPRPRPPYQPRP qualitative_label=Fulfilled
chain_sequence=RRIRLRPPRLPRPRPRPLWKPRP qualitative_label=Fulfilled
chain_sequence=RRIRKRPPRLPRPRPRPVPSPRP qualitative_label="Not fulfilled"
chain_sequence=RRIRWRPPRLPRPRPRPMGAPRP qualitative_label=Fulfilled

[ask] Hi, just wondering whether RRIRDRPPRLPRPRPRPYREPRP shows shrunken log2 fold change of -0.04 or higher.
[reply] Not fulfilled

[ask] Could you tell me if the measured shrunken log2 fold change of RRIRHRPPRLPRPRPRPIFLPRP reaches -0.04 or more?
[reply] Not fulfilled
